Here the recorded hAMY3R EC50 (cAMP) is given for each entry.
- Target Entity: T1, hAMY3R (human, UniProt P30988)
- T1 sequence 1: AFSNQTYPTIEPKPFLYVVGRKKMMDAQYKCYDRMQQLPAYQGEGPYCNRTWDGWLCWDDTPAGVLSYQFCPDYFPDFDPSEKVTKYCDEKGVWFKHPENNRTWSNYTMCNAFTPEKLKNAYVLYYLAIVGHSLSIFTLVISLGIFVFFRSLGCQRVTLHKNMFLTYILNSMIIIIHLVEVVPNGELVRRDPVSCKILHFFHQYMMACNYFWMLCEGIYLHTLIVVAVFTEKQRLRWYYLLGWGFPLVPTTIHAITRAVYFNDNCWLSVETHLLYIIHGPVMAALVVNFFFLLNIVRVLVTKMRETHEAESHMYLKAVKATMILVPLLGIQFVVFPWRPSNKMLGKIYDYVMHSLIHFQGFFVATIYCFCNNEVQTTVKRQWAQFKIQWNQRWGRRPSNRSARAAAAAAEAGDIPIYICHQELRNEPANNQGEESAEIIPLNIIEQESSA
- T1 sequence 2: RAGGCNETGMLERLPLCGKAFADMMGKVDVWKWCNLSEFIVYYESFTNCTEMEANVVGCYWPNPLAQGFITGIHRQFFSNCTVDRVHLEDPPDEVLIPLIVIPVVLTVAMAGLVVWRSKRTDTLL
- Method: cell-based or functional assay
Numbered stars: 1 amine (or outer) side, 2 acyl side, 3 side chain; on linkers, the order of the positions; unused ones are H or OH. Bridge positions count the residues as written; N and C are the ends. Square brackets hold non-standard residues; d marks the D form. Ends that are not written are not given here. * marks the point of attachment. C20 diacid = O=C(O)CCCCCCCCCCCCCCCCCCC(=O)*; γGlu = O=C(O)[C@H](CCC(=O)[*:2])N[*:1]; Hyp = O=C(O)[C@@H]1C[C@@H](O)CN1; Cit = NC(=O)NCCC[C@H](N)C(=O)O
Property Label: hAMY3R EC50 (cAMP)

binder="GCRFGTCTVQRLAHQIYQFTDKDKDNVAPRSKVSPQG[Hyp]-NH2 (disulfide 2-7 (inferred); ends not checked) [SEQ ID NO: 167]" property_label="hAMY3R EC50 (cAMP)" measured_result="0.056 nM"
binder="KCNTSTCTVAWLADQITQFSNKDKAQVSPPTEVGPNS[Hyp]-NH2 (disulfide 2-7 (inferred); ends not checked) [SEQ ID NO: 306]" property_label="hAMY3R EC50 (cAMP)" measured_result="0.003 nM"
binder="{C20 diacid-γGlu}-KCATATCTVQRLAEQIYQFTDKDKDNVAPPTNVGSNG[Hyp]-NH2 (disulfide 2-7 (inferred); not fully specified; ends not checked) [SEQ ID NO: 97]" property_label="hAMY3R EC50 (cAMP)" measured_result="0.016 nM"
binder="GCRTGTCTVQRLAHQIYQFTDKFKDNVAPRSKISPQM[Hyp]-NH2 (disulfide 2-7 (inferred); ends not checked) [SEQ ID NO: 236]" property_label="hAMY3R EC50 (cAMP)" measured_result="0.234 nM"
binder="GCRTGTCTVQRLAHQIYQFTDKFKDNVAPRSKISPQH[Hyp]-NH2 (disulfide 2-7 (inferred); ends not checked) [SEQ ID NO: 201]" property_label="hAMY3R EC50 (cAMP)" measured_result="0.126 nM"
binder="GCRTGTCTVQRLAHQIYQFTDKDKDNVAPRTNVGPNGY [SEQ ID NO: 84]" property_label="hAMY3R EC50 (cAMP)" measured_result="0.015 nM"
binder="KCNTATCTVQ[Cit]LAHQIYQFDKDKDNVAPPTNVGSNG[Hyp]-NH2 (disulfide 2-7 (inferred); ends not checked) [SEQ ID NO: 265]" property_label="hAMY3R EC50 (cAMP)" measured_result="0.03 nM"
binder="KCNTATCATQRLANFLVHSSNNFGAILPSTKIGPNGY [SEQ ID NO: 162]" property_label="hAMY3R EC50 (cAMP)" measured_result="0.051 nM"
binder="KCNTATCTVQWLAHQIYQFTDKDKDNVAPRTEVGSNGY [SEQ ID NO: 334]" property_label="hAMY3R EC50 (cAMP)" measured_result="0.013 nM"
binder="KCNTATCTVQRLAHQIYQFTDKDKDAVAPPTNVGSNG[Hyp]-NH2 (disulfide 2-7 (inferred); ends not checked) [SEQ ID NO: 52]" property_label="hAMY3R EC50 (cAMP)" measured_result="0.011 nM"
